- TARGET_DESC: recombinant human AMPK complex, containing α2β1γ2 (Homo sapiens, UniProt P54646+Q9Y478)
- Construct: hsAMPKα2-552-His, hsAMPKβ1-2-270 and hsAMPKγ-2-569 respectively; hsAMPKβ1-2-270; hsAMPKγ-2-569; His (C); made in house; host or cells: Spodoptera frugiperda Sf21 (baculovirus)
- Sequence (P54646 2-552): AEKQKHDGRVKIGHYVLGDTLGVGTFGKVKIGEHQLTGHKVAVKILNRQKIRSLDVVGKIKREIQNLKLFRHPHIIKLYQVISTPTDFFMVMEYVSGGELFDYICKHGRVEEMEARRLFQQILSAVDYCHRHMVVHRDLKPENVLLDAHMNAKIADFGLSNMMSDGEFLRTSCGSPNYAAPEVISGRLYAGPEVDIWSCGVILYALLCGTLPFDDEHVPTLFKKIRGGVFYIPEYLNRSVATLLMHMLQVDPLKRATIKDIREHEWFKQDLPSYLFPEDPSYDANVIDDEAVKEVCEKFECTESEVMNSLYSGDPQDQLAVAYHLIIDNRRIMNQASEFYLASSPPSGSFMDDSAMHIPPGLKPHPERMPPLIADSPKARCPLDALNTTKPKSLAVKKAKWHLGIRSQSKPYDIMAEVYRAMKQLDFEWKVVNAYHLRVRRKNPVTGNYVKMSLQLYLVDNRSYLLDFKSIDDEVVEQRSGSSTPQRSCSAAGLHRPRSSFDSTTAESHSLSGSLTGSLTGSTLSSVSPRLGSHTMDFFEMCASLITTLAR
- Sequence (Q9Y478 2-270): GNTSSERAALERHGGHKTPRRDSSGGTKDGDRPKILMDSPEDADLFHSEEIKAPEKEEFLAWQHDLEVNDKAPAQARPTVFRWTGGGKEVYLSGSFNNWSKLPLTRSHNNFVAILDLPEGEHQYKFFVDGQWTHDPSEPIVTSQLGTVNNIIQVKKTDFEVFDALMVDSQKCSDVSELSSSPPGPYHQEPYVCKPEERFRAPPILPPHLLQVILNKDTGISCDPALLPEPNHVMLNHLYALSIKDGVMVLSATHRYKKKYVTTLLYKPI
- Sequence (Q9UGJ0 2-569 partner limits assumed): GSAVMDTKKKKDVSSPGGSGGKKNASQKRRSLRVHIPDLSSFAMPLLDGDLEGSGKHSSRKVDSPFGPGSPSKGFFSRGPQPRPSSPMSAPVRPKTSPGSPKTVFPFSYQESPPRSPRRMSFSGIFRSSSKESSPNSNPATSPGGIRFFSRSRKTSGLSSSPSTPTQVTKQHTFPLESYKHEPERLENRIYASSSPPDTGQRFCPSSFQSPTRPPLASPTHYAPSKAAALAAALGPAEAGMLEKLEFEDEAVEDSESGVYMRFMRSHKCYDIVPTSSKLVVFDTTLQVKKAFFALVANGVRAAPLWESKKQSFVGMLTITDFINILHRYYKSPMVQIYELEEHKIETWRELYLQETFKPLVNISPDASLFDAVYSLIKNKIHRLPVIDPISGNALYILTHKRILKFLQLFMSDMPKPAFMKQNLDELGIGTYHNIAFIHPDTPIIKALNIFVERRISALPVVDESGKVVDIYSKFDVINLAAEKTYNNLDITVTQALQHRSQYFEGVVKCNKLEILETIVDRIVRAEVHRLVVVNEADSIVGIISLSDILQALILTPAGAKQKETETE
- RUN_DESCRIPTION: AMPK in vitro activation assay (HTRF)
- Format: biochemical
- MEASUREMENT_CONTEXT: potentiation of AMPK activity as percent over the basal signal (without compound)
OBSERVED_PROPERTY: Emax (%)

- COMPOUND: "O=C1Nc2cc(Cl)c(-c3ccc(C4(CO)CC4)cc3)cc2C1=C(O)c1cc(C2CC2)no1"
  TARGET_DESC: "recombinant human AMPK complex, containing α2β1γ2 (Homo sapiens, UniProt P54646+Q9Y478)"
  READOUT_UNIT: "%"
  Emax: 155

(I) COc1cc(C(O)=C2C(=O)Nc3cc(F)c(-c4ccc(-c5cccc(OC)c5O)cc4)c(F)c32)on1
(II) COc1cc(C(O)=C2C(=O)Nc3cc(Cl)c(-c4ccc(N(C)C)nc4)cc32)on1
Lab note: check whether I or II shows the higher recorded Emax. # answer = label of selected item
II
(II: 278%, I: 172%)

(I) CC(C)(C)c1cc(C(O)=C2C(=O)Nc3cc(Cl)c(-c4ccc(N5CCOCC5)cc4)cc32)on1
(II) COc1cc(C(O)=C2C(=O)Nc3cc(Cl)c(-c4ccc(OC5CCOCC5)cc4)cc32)on1
Lab note: check whether I or II shows the higher recorded Emax. # answer = label of selected item
II
